testSummary: Lenalidomide pharmacokinetic study in rats (IV and oral)
Assay type: in vivo, Sprague Dawley rats
recordedConditions: Sprague Dawley, rat, feces; male rats, 10 mg/kg PO; read-out: Fecal Recovery
metric: dose excreted (%)
Field: numeric (%). Do not append units.

Prompt line: Check the records and state dose excreted for Nc1cccc2c1CN(C1CCC(=O)NC1=O)C2=O (stereo not shown) [Lenalidomide]
Response line: 10

###

testSummary: Lenalidomide pharmacokinetic study in rats (IV and oral)
Type: in vivo, Sprague Dawley rats
recordedConditions: Sprague Dawley, rat, feces; male rats, 1 mg/kg IV, 24 h; read-out: Fecal Recovery
metric: dose excreted (%)
Field: numeric (%). Do not append units.

Prompt line: Check the records and state dose excreted for Nc1cccc2c1CN(C1CCC(=O)NC1=O)C2=O (stereo not shown) [Lenalidomide]
Response line: 3.2

###

testSummary: gMDCK (P-gp knockout MDCK) monolayer permeability assay
recordedConditions: dog, MDCK, Lenalidomide Permeability in gMDCK Cells, FaSSIF, 50 uM
metric: Papp at 3 h, 50 µM (×10⁻⁶ cm/s)
Field: numeric (×10⁻⁶ cm/s). Do not append units.

Prompt line: Check the records and state Papp at 3 h, 50 µM for Nc1cccc2c1CN(C1CCC(=O)NC1=O)C2=O (stereo not shown) [Lenalidomide]
Response line: 0.28

###

assaySystem: P-gp (MDR1) (Homo sapiens)
Construct: expressed in transfected cells; host or cells: gMDCK (P-gp-knockout Madin-Darby Canine Kidney cells), puromycin selection
Sequence (P08183 whole entry): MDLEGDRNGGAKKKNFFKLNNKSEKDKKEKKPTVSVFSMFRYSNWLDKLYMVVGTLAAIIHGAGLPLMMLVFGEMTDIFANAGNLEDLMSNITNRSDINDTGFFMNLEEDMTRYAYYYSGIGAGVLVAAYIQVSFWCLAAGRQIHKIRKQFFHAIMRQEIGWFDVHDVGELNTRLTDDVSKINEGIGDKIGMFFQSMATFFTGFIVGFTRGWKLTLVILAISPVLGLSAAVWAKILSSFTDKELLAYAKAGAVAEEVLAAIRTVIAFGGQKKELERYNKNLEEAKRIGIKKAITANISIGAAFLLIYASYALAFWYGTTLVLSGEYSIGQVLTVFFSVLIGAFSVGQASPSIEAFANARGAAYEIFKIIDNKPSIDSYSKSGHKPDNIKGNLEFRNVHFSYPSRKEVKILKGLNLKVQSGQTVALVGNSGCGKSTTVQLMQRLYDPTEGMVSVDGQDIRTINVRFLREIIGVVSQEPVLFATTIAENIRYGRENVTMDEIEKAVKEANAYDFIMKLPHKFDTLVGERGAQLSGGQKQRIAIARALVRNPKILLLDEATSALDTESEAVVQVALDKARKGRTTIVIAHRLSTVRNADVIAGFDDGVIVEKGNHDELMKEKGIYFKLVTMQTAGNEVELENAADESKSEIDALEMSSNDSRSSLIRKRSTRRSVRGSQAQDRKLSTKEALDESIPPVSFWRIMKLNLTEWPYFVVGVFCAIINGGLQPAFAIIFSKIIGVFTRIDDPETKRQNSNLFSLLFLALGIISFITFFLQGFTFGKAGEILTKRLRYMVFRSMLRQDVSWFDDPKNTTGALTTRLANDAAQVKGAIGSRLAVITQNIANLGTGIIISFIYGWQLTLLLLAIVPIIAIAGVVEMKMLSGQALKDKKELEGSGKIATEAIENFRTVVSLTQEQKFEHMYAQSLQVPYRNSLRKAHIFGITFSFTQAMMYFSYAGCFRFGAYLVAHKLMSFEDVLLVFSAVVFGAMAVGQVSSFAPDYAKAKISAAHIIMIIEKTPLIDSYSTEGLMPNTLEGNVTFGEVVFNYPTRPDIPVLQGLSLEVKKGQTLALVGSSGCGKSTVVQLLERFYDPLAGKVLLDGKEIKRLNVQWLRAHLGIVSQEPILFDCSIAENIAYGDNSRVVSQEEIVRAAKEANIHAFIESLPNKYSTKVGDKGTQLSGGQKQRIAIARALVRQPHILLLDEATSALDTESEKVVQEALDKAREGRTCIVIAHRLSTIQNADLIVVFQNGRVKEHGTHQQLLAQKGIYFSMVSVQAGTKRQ
testSummary: Bidirectional permeability in gMDCK cells overexpressing human P-gp (gMDCK-MDR1)
Type: in vitro ADME
recordedConditions: human, MDCK-MDR1, pH 7.4; gMDCK-MDR1
Method: gMDCK cells were maintained in Dulbecco’s Modified Eagle’s Medium (DMEM) supplemented with Gibco’s MEM amino acids solution (1 X), penicillin (100 units/mL), streptomycin ([…]), and 10% fetal bovine serum and in a humidified, 37 °C, 5% CO2 environment as previously described. […] TEER values were measured on the day of the experiment using an EVOM^TM Auto (World Precision Instruments, Sarasota, FL, USA). […]
metric: efflux ratio at 3 h
Write no unit; give the number alone.

Prompt line: Check the records and state efflux ratio at 3 h for Nc1cccc2c1CN(C1CCC(=O)NC1=O)C2=O (stereo not shown) [Lenalidomide]
Response line: 14

###

testSummary: Lenalidomide pharmacokinetic study in rats (IV and oral)
Type: in vivo, Sprague Dawley rats
recordedConditions: Sprague Dawley, rat, feces; male rats, 2 mg/kg PO; read-out: Fecal Recovery
Procedure: All animal pharmacokinetic experiments were carried out by WuXi (Shanghai, China). Animals were kept on a light-dark cycle and allowed to eat and drink ad libitum. Animals receiving oral doses were fasted overnight. Animals’ condition and behavior were monitored throughout the experiment for signs of pain and distress. […] The human equivalent dose (HED) was calculated based on the previously reported AUC after a typical dose in humans. […]
metric: dose excreted (%)
Field: numeric (%). Do not append units.

Prompt line: Check the records and state dose excreted for Nc1cccc2c1CN(C1CCC(=O)NC1=O)C2=O (stereo not shown) [Lenalidomide]
Response line: 12

###

testSummary: RepliGut human jejunal organoid-derived monolayer permeability assay
recordedConditions: human, pH 7.4
metric: Papp A→B at 3 h (×10⁻⁶ cm/s)
Field: numeric (×10⁻⁶ cm/s). Do not append units.

Prompt line: Check the records and state Papp A→B at 3 h for Nc1cccc2c1CN(C1CCC(=O)NC1=O)C2=O (stereo not shown) [Lenalidomide]
Response line: 0.58

###

testSummary: Lenalidomide pharmacokinetic study in rats (IV and oral)
Type: in vivo, Sprague Dawley rats
recordedConditions: Sprague Dawley, rat, plasma; male rats, 50 mg/kg PO
metric: AUC (µM·h)
Field: numeric (µM·h). Do not append units.

Prompt line: Check the records and state AUC for Nc1cccc2c1CN(C1CCC(=O)NC1=O)C2=O (stereo not shown) [Lenalidomide]
Response line: 79.4

###

testSummary: gMDCK (P-gp knockout MDCK) monolayer permeability assay
recordedConditions: dog, MDCK, pH 7.4, apparent permeability (Papp), gMDCK cell monolayers, independent of concentration
metric: Papp at 3 h

Prompt line: Check the records and state Papp at 3 h for Nc1cccc2c1CN(C1CCC(=O)NC1=O)C2=O (stereo not shown) [Lenalidomide]
Response line: ~0.2 ×10⁻⁶ cm/s

###

testSummary: gMDCK (P-gp knockout MDCK) monolayer permeability assay
recordedConditions: dog, MDCK, Lenalidomide Permeability in gMDCK Cells, FaSSIF, 10 uM
metric: Papp at 3 h, 10 µM (×10⁻⁶ cm/s)
Field: numeric (×10⁻⁶ cm/s). Do not append units.

Prompt line: Check the records and state Papp at 3 h, 10 µM for Nc1cccc2c1CN(C1CCC(=O)NC1=O)C2=O (stereo not shown) [Lenalidomide]
Response line: 0.27

###

testSummary: Lenalidomide pharmacokinetic study in rats (IV and oral)
Format: in vivo, Sprague Dawley rats
recordedConditions: Sprague Dawley, rat, plasma; male rats, 1 mg/kg IV, serum, n=3
metric: AUC (µM·h)
Field: numeric (µM·h). Do not append units.

Prompt line: Check the records and state AUC for Nc1cccc2c1CN(C1CCC(=O)NC1=O)C2=O (stereo not shown) [Lenalidomide]
Response line: 2.34

###

testSummary: Lenalidomide pharmacokinetic study in rats (IV and oral)
Format: in vivo, Sprague Dawley rats
recordedConditions: male, Sprague Dawley, rat, urine and plasma, iv, 1 mg/kg; read-out: CLR (renal clearance)
metric: CL renal (mL/min/kg)
Field: numeric (mL/min/kg). Do not append units.

Prompt line: Check the records and state CL renal for Nc1cccc2c1CN(C1CCC(=O)NC1=O)C2=O (stereo not shown) [Lenalidomide]
Response line: 24

###

testSummary: gMDCK (P-gp knockout MDCK) monolayer permeability assay
recordedConditions: dog, MDCK, Lenalidomide Permeability in gMDCK Cells, FeSSIF, 50 uM
metric: Papp at 3 h, 50 µM (×10⁻⁶ cm/s)
Field: numeric (×10⁻⁶ cm/s). Do not append units.

Prompt line: Check the records and state Papp at 3 h, 50 µM for Nc1cccc2c1CN(C1CCC(=O)NC1=O)C2=O (stereo not shown) [Lenalidomide]
Response line: 0.14

###

testSummary: Lenalidomide pharmacokinetic study in rats (IV and oral)
Assay type: in vivo, Sprague Dawley rats
recordedConditions: male, Sprague Dawley, rat, feces; rats, across oral doses; read-out: fecal recovery
metric: dose excreted

Prompt line: Check the records and state dose excreted for Nc1cccc2c1CN(C1CCC(=O)NC1=O)C2=O (stereo not shown) [Lenalidomide]
Response line: ~12%

###

testSummary: gMDCK (P-gp knockout MDCK) monolayer permeability assay
recordedConditions: dog, MDCK, pH 7.4, Lenalidomide Permeability in gMDCK Cells, 4% BSA in receiver compartment, 10 uM
metric: Papp at 3 h, 10 µM (×10⁻⁶ cm/s)
Field: numeric (×10⁻⁶ cm/s). Do not append units.

Prompt line: Check the records and state Papp at 3 h, 10 µM for Nc1cccc2c1CN(C1CCC(=O)NC1=O)C2=O (stereo not shown) [Lenalidomide]
Response line: 0.12

###

testSummary: gMDCK (P-gp knockout MDCK) monolayer permeability assay
recordedConditions: dog, MDCK, Lenalidomide Permeability in gMDCK Cells, FeSSIF, 250 uM
metric: Papp at 3 h, 250 µM (×10⁻⁶ cm/s)
Field: numeric (×10⁻⁶ cm/s). Do not append units.

Prompt line: Check the records and state Papp at 3 h, 250 µM for Nc1cccc2c1CN(C1CCC(=O)NC1=O)C2=O (stereo not shown) [Lenalidomide]
Response line: 0.1

###

testSummary: RepliGut human jejunal organoid-derived monolayer permeability assay
recordedConditions: human, pH 7.4, with elacridar + Ko143 (concentrations not given)
metric: Papp B→A at 3 h (×10⁻⁶ cm/s)
Field: numeric (×10⁻⁶ cm/s). Do not append units.

Prompt line: Check the records and state Papp B→A at 3 h for Nc1cccc2c1CN(C1CCC(=O)NC1=O)C2=O (stereo not shown) [Lenalidomide]
Response line: 0.8

###

testSummary: Lenalidomide pharmacokinetic study in rats (IV and oral)
Type: in vivo, Sprague Dawley rats
recordedConditions: Sprague Dawley, rat, urine; male rats, 50 mg/kg PO; read-out: Urinary Recovery
metric: dose excreted (%)
Field: numeric (%). Do not append units.

Prompt line: Check the records and state dose excreted for Nc1cccc2c1CN(C1CCC(=O)NC1=O)C2=O (stereo not shown) [Lenalidomide]
Response line: 43

###

testSummary: Lenalidomide pharmacokinetic study in rats (IV and oral)
Type: in vivo, Sprague Dawley rats
recordedConditions: Sprague Dawley, rat, plasma; male rats, 2 mg/kg PO
metric: Cmax (nM)
Field: numeric (nM). Do not append units.

Prompt line: Check the records and state Cmax for Nc1cccc2c1CN(C1CCC(=O)NC1=O)C2=O (stereo not shown) [Lenalidomide]
Response line: 1600

###

testSummary: RepliGut human jejunal organoid-derived monolayer permeability assay
recordedConditions: human, pH 7.4, with elacridar 5 µM + Ko143 1 µM, Efflux Ratio, human jejunal organoids + elacridar (5 μM) + Ko143 (1 μM)
metric: efflux ratio at 3 h

Prompt line: Check the records and state efflux ratio at 3 h for Nc1cccc2c1CN(C1CCC(=O)NC1=O)C2=O (stereo not shown) [Lenalidomide]
Response line: ~1

###

testSummary: Lenalidomide pharmacokinetic study in rats (IV and oral)
Assay type: in vivo, Sprague Dawley rats
recordedConditions: male, Sprague Dawley, rat, plasma, po, rats, all doses
metric: bioavailability

Prompt line: Check the records and state bioavailability for Nc1cccc2c1CN(C1CCC(=O)NC1=O)C2=O (stereo not shown) [Lenalidomide]
Response line: 68 to 120%
